- System: TNFα
- PROCEDURE_SUMMARY: cells
- Type: cell-based, human
- CONDITIONS: Homo sapiens, Monocyte, LPS-stimulated human monocytes, TNFα by TR-FRET; read-out: EC50 TNF
Below, each entry is listed alongside its reported pEC50.
Please note pEC50 is a logarithmic value: minus log10 of concentration in mol/L. Answer with that number alone.

Prompt line: Need pEC50 of CC(C)(O)[C@H](F)CNC(=O)c1cnc(-c2ccc3cc(C#N)cnn23)cc1Nc1cnn([C@@H]2CNC[C@@H]2F)c1 , thanks.
Response line: 7.05

Next item in the queue.
Prompt line: Entry under review: N#Cc1cnn2c(-c3cc(NC45CCC(O)(CC4)CC5)c(C(=O)NCC(=O)N4CCC5(COC5)C4)cn3)ccc2c1 . Reported pEC50?
Response line: 7.21

====

- TEST_SYSTEM: IRAK4 enzyme (Homo sapiens (Human))
- Sequence (Q9NWZ3 whole entry): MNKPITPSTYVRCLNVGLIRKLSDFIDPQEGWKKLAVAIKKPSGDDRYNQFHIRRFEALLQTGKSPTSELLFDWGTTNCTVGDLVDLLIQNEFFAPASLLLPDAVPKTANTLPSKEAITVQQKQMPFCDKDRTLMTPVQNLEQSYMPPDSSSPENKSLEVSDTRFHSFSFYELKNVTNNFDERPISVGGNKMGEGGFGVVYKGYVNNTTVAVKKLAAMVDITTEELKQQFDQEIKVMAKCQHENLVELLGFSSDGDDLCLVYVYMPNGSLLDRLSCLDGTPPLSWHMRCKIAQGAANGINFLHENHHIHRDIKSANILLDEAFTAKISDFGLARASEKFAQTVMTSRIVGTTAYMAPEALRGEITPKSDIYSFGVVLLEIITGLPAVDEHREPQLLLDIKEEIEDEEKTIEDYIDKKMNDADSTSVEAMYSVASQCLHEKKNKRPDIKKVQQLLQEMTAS
- PROCEDURE_SUMMARY: biochemical
- Format: biochemical
- CONDITIONS: IRAK4 enzyme, TR-FRET, 500 μM ATP
Reported pIC50 by item:
Scale note: pIC50 = -log10(concentration in M).

Take a look at these entries with their results.
Prompt line: pIC50 lookup needed for CC(C)(O)[C@H](F)CNC(=O)c1cnc(-c2ccc3cc(C#N)cnn23)cc1N[C@H]1CCC(=O)NC1 , thanks.
Response line: 8.30

Prompt line: Give the measured pIC50 of CC(C)Nc1cc(-c2ccc3cc(C(N)=O)cnn23)ncc1C(=O)NCC1CS(=O)(=O)C1 .
Response line: 7.74

Prompt line: Fill in the blank: the reported pIC50 of CC(C)Nc1cc(-c2ccc3cc(C#N)cnn23)ncc1C(=O)N[C@@H]1CCC[C@H](O)C1 is ____.
Response line: 8.52

Prompt line: What value of pIC50 has been reported for the following molecule? CC(=O)N[C@@H]1CC[C@H](Nc2cc(-c3ccc4cc(C#N)cnn34)ncc2C(=O)NC[C@@H](F)C(C)(C)O)C1
Response line: 8.70

More entries:
Prompt line: Bench note: what pIC50 did CC(C)(O)[C@H](F)CNC(=O)c1cnc(-c2ccc3cc(C#N)cnn23)cc1N[C@@H]1[C@@H]2COC[C@@H]21 show?
Response line: 8.70

====

- Test system: TNFα
- PROCEDURE_SUMMARY: cells
- Assay type: cell-based, human
- CONDITIONS: Homo sapiens, Monocyte, LPS-stimulated human monocytes, TNFα content; read-out: EC50 TNF
PROPERTY_NAME: EC50 (µM)
// return numeric value only (unit: µM, not printed)

Prompt line: # EC50 lookup, item CC(C)(O)[C@H](F)CNC(=O)c1cnc(-c2ccc3cc(C#N)cnn23)cc1N[C@H]1C[C@H](Cn2ccnc2)C1
Response line: 0.022

Prompt line: Report EC50 for CC(C)(O)[C@H](F)CNC(=O)c1cnc(-c2ccc3cc(C#N)cnn23)cc1NC[C@@H](F)C(C)(C)O please.
Response line: 0.083

Prompt line: Returns the measured EC50 for the input compound. Input: CC1(Nc2cc(-c3ccc4cc(C#N)cnn34)ncc2C(=O)NCC#N)COC1
Response line: 0.051

---
Prompt line: Which measured EC50 value corresponds to COC(=O)N[C@]1(C)CC[C@@H](Nc2cc(-c3ccc4cc(C#N)cnn34)ncc2C(=O)NC[C@@H](F)C(C)(C)O)CC1 ?
Response line: 0.335

Prompt line: // lookup EC50 for CC(C)(O)[C@H](F)CNC(=O)c1cnc(-c2ccc3cc(C#N)cnn23)cc1Nc1cncc(C(N)=O)c1
Response line: 0.222

Prompt line: I have this compound here, COC(=O)NCCCNc1cc(-c2ccc3cc(C#N)cnn23)ncc1C(=O)NC[C@@H](F)C(C)(C)O , and I need its recorded EC50.
Response line: 0.055

Prompt line: Would you kindly share the measured EC50 for Cc1cc(Nc2cc(-c3ccc4cc(C#N)cnn34)ncc2C(=O)NC[C@@H](F)C(C)(C)O)ccc1C(N)=O ?
Response line: 0.114

Prompt line: Requested read-out: EC50. Entry: CC(C)(O)[C@H](F)CNC(=O)c1cnc(-c2ccc3cc(C#N)cnn23)cc1N[C@H]1C[C@H](Cn2cc(C3CC3)nn2)C1
Response line: 0.069

Prompt line: What measured EC50 goes with CC(C)(O)[C@H](F)CNC(=O)c1cnc(-c2ccc3cc(C#N)cnn23)cc1N[C@H]1C[C@H](CNC(=O)OCC(F)F)C1 ?
Response line: 0.004

Prompt line: Item under review: CC(C)Nc1cc(-c2ccc3cc(C#N)cnn23)ncc1C(=O)NC12CC(C#N)(C1)C2 . Reported EC50?
Response line: 0.773

Prompt line: Query: EC50; subject: CC1(C)OCCC1Nc1cc(-c2ccc3cc(C#N)cnn23)ncc1C(=O)NC[C@@H](F)C(C)(C)O (stereo partly shown)
Response line: 0.221

Prompt line: Sample CC(C)(O)[C@H](F)CNC(=O)c1cnc(-c2ccc3cc(C#N)cnn23)cc1NC12CCC(C(F)F)(CC1)CC2 — what was its EC50?
Response line: 0.018

Prompt line: Suppose we examine the compound CC(C)Nc1cc(-c2ccc3cc(C#N)cnn23)ncc1C(=O)N[C@H]1CC[C@H](NC(=O)C2CC2)CC1 ; what EC50 value has been reported?
Response line: 0.114

Prompt line: What value of EC50 has been recorded for this entry: CC(=O)NC(C)(C)CCNC(=O)c1cnc(-c2ccc3cc(C#N)cnn23)cc1NC12CCC(O)(CC1)CC2
Response line: 0.048

Prompt line: Requested field: EC50. Item: CC(C)(O)[C@H](F)CNC(=O)c1cnc(-c2ccc3cc(C#N)cnn23)cc1Nc1ccc(C(N)=O)nc1
Response line: 0.064

Prompt line: Fill blank: measured EC50 of the compound Cc1cc(Nc2cc(-c3ccc4cc(C#N)cnn34)ncc2C(=O)NC[C@@H](F)C(C)(C)O)ncc1C#N is ____.
Response line: 0.104

Prompt line: Look at this compound and give its reported EC50. CC(C)(O)[C@H](F)CNC(=O)c1cnc(-c2ccc3cc(C#N)cnn23)cc1N[C@H]1C[C@H](CO)C1
Response line: 0.016

Prompt line: Bench note: what EC50 did CNC(=O)c1cnc(-c2ccc3cc(C#N)cnn23)cc1N[C@H]1C[C@@H](C(=O)NC)C1 show?
Response line: 0.074

Prompt line: Look at this compound and give its reported EC50. CC(C)(O)[C@H](F)CNC(=O)c1cnc(-c2ccc3cc(C#N)cnn23)cc1Nc1ccc(N2CCC2)nc1
Response line: 0.023

Prompt line: Please look up its EC50: CC(C)(O)[C@H](F)CNC(=O)c1cnc(-c2ccc3cc(C#N)cnn23)cc1N[C@H]1C[C@@H](CO)C1
Response line: 0.04

Prompt line: What measured EC50 goes with CNC(=O)c1cnc(-c2ccc3cc(C#N)cnn23)cc1NC1CCC(NC(=O)C(F)(F)F)CC1 (stereo not shown) ?
Response line: 0.154

Prompt line: Would you kindly share the measured EC50 for CC(C)Nc1cc(-c2ccc3cc(C#N)cnn23)ncc1C(=O)NNC(=O)C(C)(C)O ?
Response line: 0.458

Prompt line: Would you kindly share the measured EC50 for COC(=O)N[C@H]1CC[C@H](Nc2cc(-c3ccc4cc(C#N)cnn34)ncc2C(=O)NC[C@@H](F)C(C)(C)O)C1 ?
Response line: 0.198

Prompt line: Which EC50 value is on record for N#CCNC(=O)c1cnc(-c2ccc3cc(C#N)cnn23)cc1NC1CC2(CC(O)C2)C1 (stereo not shown) ?
Response line: 0.068

Prompt line: Which EC50 is reported for this compound? CC(C)(O)Cn1cc(Nc2cc(-c3ccc4cc(C#N)cnn34)ncc2C(=O)NC[C@@H](F)C(C)(C)O)cn1
Response line: 0.117

Prompt line: Any idea what its EC50 is? The compound is CC(C)(O)[C@H](F)CNC(=O)c1cnc(-c2ccc3cc(C#N)cnn23)cc1Nc1cnc(N2CC3(CCOCC3)C2)nc1
Response line: 0.18

Prompt line: Record request: EC50 value, item CC(C)(O)[C@H](F)CNC(=O)c1cnc(-c2ccc3cc(C#N)cnn23)cc1NCCC(C)(N)C(F)(F)F (stereo partly shown)
Response line: 0.075
